Values compiled from patent US20180009871A1.

List of hGCGR pEC50 (cAMP) values.
# System tested: human glucagon receptor (GCGR) (human, UniProt P47871 26-477)
# Method: cell-based or functional assay
Where no end group is shown, it is not given here. [ ]: non-standard residue; d: D form. Aib = CC(C)(N)C(=O)O
Measurement label: hGCGR pEC50 (cAMP) (pEC50)

1. WSQGTFTSDYSKYLD[Aib]KAAQEFV[Aib]WLEDEPSSGKPPPS [Compound A93]: 10.9
2. WSQGTFTSDYSKYLD[Aib]KAAQEFV[Aib]WLEDEPSSGAPPPS [Compound A92]: 10.7
3. YSHGTFTSDYSKYLDAARAQEFVKWLEDEPKSKSPPPS-NH2 [Compound A80]: 12.5
4. WSQGTFTSDYSKYLD[Aib]KRAQEFV[Aib]WLEDEPSSGKPPPS [Compound A91]: 12.8
5. YSHGTFTSDYSKYLD[Aib]KAAQEFV[Aib]WLEDEPSSGKPPPS [Compound A90]: 13.1
6. YSHGTFTSDYSKYLD[Aib]KRAQEFV[Aib]WLEDEKSSGKPPPS [Compound A87]: 13.6
7. YSQGTFTSDYSKYLD[Aib]KRAQEFV[Aib]WLEDEPSSGAPPPS [Compound A94]: 14.1
8. YSHGTFTSDYSKYLD[Aib]KRAQEFV[Aib]WLEDEPSSGKKPPS [Compound A88]: 13.8
9. YSHGTFTSDYSKYLD[Aib]KRAQEFV[Aib]HLEDEPSSGKPPPS [Compound A89]: 12.7
10. YSQGTFTSDYSKYLD[Aib]KAAQEFV[Aib]WLEDEPSSGKPPPS [Compound A96]: 13
